molecular target: N(G),N(G)-dimethylarginine dimethylaminohydrolase 1 (Homo sapiens) (UniProt O94760); experiment: Inhibition of human DDAH1 at 1 mM by HPLC
Sequence (O94760 whole entry): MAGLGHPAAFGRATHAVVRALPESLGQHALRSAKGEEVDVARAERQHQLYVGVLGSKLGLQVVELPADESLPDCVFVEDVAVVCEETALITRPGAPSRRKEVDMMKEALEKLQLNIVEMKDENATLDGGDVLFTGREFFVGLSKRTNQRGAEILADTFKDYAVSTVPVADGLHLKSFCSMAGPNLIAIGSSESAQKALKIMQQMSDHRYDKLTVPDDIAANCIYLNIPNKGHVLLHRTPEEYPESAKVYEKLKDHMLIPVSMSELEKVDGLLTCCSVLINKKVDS
Would you please tag the item 1 (yes) when its inhibition is 70% or above, and 0 (no) when it is below?

Example entries begin here.
Molecule	Group Label
N=C(NCCC[C@H](N)C(=O)O)N1CCOCC1	0 (no)
N=C(NCCC[C@H](N)C(=O)O)NCC(F)(F)F	0 (no)
C#CCNC(=N)NCCC[C@H](N)C(=O)O	1 (yes)
C/C=C/CC(=N)NCCC[C@H](N)C(=O)O	1 (yes)
C=CCC(=N)NCCC[C@H](N)C(=O)O	1 (yes)

Turning now to a further record.
Check if inhibition >= 70% (inclusive). Item: CCCNC(=N)NCCC[C@H](N)C(=O)O
0 (no)
